- protocolSummary: Dog pharmacokinetic study (intravenous and oral)
- Type: in vivo
- testParameters: plasma, Beagle dogs, oral, 5 mg/kg, solution
property: Cmax (ng/mL)
Use ng/mL as the unit, but write only the number.

Recorded Cmax, per entry:
INSERT INTO assay_data (compound, property, recordednumber) VALUES
  ('CC[C@@H](C#N)NC(=O)c1ccc(-c2nc(Nc3cnn(C4CCNCC4)c3)ncc2Cl)cc1 [Example 183]', 'Cmax', 5.63),
  ('C[C@@H](C#N)NC(=O)c1ccc(-c2nc(Nc3cnn(C4CCNCC4)c3)ncc2Cl)cc1 [Example 165]', 'Cmax', 11),
  ('Cc1cnc(Nc2cnn(C3CCN(C(=O)CO)CC3)c2)nc1-c1ccc(C(=O)N[C@@H](C)C#N)cc1 [Example 119]', 'Cmax', 37.9);

Supply reported Cmax belonging to this compound: CC[C@@H](C#N)NC(=O)c1ccc(-c2nc(Nc3cnn(C4CCN(C)CC4)c3)ncc2C)cc1 [Example 184]
125

----------
- assayedSystem: CYP2D6 (Homo sapiens)
- Sequence (P10635 whole entry): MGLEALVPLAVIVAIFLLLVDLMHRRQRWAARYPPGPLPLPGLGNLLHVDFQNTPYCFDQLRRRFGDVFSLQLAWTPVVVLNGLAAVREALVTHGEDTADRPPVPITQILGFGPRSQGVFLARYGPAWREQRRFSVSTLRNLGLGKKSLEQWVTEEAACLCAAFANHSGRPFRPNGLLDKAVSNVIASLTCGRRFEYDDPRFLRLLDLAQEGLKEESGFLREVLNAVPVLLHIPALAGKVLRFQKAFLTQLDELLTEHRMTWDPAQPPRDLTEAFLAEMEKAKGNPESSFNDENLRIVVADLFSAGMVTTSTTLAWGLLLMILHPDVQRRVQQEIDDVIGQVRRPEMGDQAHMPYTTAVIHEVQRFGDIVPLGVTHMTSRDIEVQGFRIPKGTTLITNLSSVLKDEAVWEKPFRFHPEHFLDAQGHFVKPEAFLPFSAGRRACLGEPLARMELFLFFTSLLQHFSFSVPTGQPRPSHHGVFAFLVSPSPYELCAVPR
Define the label as MET when IC50 is strictly less than 40 µM and as NOT MET in all remaining cases.

Recorded results for 4 molecules are shown here.
INSERT INTO assay_data (molecule, cat) VALUES
  ('CC[C@@H](C#N)NC(=O)c1ccc(-c2nc(Nc3cnn(C4CCNCC4)c3)ncc2Cl)cc1', 'NOT MET'),
  ('CC[C@@H](C#N)NC(=O)c1ccc(-c2nc(Nc3cnn(C4CCN(C)CC4)c3)ncc2Cl)cc1', 'NOT MET'),
  ('Cc1cnc(Nc2cnn(CC#N)c2)nc1-c1ccc(C(=O)NCC#N)cc1', 'NOT MET'),
  ('CC[C@@H](C#N)NC(=O)c1ccc(-c2nc(Nc3cnn(CCO)c3)ncc2Cl)cc1', 'MET');

Criterion: IC50 strictly below 40 µM. Is it met by C[C@@H](C#N)NC(=O)c1ccc(-c2nc(Nc3cnn(C4CCNCC4)c3)ncc2Cl)cc1 ?
NOT MET

Field: below-cutoff. Rule: recorded IC50 strictly less than 40 µM. Subject: Cc1cnc(Nc2cnn(C3CCC(O)CC3)c2)nc1-c1ccc(C(=O)NCC#N)cc1 (stereo not shown)
MET

Quick check: does CC(=O)N1CCC(n2cc(Nc3ncc(C)c(-c4ccc(C(=O)NCC#N)cc4)n3)cn2)CC1 have IC50 under 40 µM?
NOT MET

Say whether its IC50 is strictly beneath 40 µM. Entry: COC[C@@H](C#N)NC(=O)c1ccc(-c2nc(Nc3cnn(C4CCN(C)CC4)c3)ncc2C)cc1
MET

Report whether reported IC50 is lower than 40 µM (strictly) for CC[C@@H](C#N)NC(=O)c1ccc(-c2nc(Nc3cnn(CCO)c3)ncc2C)cc1
NOT MET

Lab note: confirm whether the reported IC50 for this molecule is below 40 µM, equality not counting. molecule: Cc1cnc(Nc2cnn(C3CCN(CC(F)F)CC3)c2)nc1-c1ccc(C(=O)NCC#N)cc1
NOT MET

----------
- assayedSystem: JAK1 (Homo sapiens, UniProt P23458)
- Construct: purchased Carna Biosciences
- Sequence (P23458 whole entry): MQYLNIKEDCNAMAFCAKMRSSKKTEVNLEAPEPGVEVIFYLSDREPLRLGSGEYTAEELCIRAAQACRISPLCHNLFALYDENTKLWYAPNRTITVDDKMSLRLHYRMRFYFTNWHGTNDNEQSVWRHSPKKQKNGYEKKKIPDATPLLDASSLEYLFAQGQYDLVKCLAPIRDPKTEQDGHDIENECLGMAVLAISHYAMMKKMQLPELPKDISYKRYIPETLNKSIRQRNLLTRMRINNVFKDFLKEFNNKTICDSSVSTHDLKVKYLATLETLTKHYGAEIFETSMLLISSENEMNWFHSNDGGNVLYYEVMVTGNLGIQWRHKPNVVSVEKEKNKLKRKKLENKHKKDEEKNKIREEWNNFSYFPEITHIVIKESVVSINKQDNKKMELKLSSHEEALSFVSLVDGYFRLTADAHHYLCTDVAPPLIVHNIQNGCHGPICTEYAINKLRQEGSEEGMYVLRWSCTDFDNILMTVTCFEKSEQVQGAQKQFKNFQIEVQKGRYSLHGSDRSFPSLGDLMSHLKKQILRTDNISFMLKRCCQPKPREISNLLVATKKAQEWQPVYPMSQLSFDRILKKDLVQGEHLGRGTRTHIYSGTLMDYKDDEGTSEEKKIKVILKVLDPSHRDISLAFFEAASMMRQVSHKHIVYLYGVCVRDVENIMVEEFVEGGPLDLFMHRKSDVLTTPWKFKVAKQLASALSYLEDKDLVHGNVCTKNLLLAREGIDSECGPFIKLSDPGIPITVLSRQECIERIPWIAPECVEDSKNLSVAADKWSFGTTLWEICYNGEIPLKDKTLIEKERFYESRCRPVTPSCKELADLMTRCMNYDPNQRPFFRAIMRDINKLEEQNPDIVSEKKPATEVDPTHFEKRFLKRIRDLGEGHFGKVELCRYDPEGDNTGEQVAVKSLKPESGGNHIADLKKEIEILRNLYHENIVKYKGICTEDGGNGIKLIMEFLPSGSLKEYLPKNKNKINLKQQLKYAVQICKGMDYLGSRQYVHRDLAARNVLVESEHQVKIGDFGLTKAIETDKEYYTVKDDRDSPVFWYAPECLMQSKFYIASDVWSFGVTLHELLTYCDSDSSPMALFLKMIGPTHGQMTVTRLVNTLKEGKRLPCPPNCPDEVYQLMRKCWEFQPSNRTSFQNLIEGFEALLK
- protocolSummary: JAK1 microfluidic kinase assay (Caliper EZ Reader II, FAM labeled peptide substrate)
- Assay type: biochemical
- testParameters: IC50 JAK1 (5 nM) (1 m MATP), JAK1 5 nM, 1 mM ATP
- Method: Compounds were tested against JAK1, JAK2, JAK2V617F and TYK2. Assay Formats: JAK activity was determined in the reaction buffer 50 mM HEPES, 0.01% Brij35, 10 mM MgCl2, 2 mM DTT by a microfluidic assay. The phosphorylation of a FAM labeled peptide substrate was monitored in the Caliper EZ Reader II (Perkin Elmer). The assay condition for each batch of enzyme (Carna Biosciences) was optimized to obtain 10% conversion rate of peptide substrate. […]
# pIC50 listing for each entry below
Reminder that pIC50 means the negative base-10 logarithm of the concentration expressed in mol/L.

# annotated cases, reported pIC50 shown
INSERT INTO results (molecule, recordednumber) VALUES
  ('CC(C)(C#N)CNC(=O)c1ccc(-c2nc(Nc3cnn(C4CC4)c3)ncc2Cl)cc1', 7.72),
  ('CC[C@@H](C#N)NC(=O)c1ccc(-c2nc(Nc3cnn(C4CC(C)(C)OC(C)(C)C4)c3)ncc2Cl)cc1', 8.06),
  ('CC[C@@H](C#N)NC(=O)c1ccc(-c2nc(Nc3cnn(C(C)C(F)(F)F)c3)ncc2C)cc1 (some centres unmarked) [Example 195]', 8.44);

Give recorded pIC50. CCC[C@@H](C#N)NC(=O)c1ccc(-c2nc(Nc3cnn(C4CC4)c3)ncc2C)cc1
8.53

For C[C@@H](C#N)NC(=O)c1ccc(-c2nc(Nc3cnn(C4CCN(C(=O)CO)CC4)c3)ncc2Cl)cc1 , write its pIC50.
7.81

Identify pIC50 associated with the molecule C[C@@H](C#N)NC(=O)c1ccc(-c2nc(Nc3cnn(CC(N)=O)c3)ncc2Cl)cc1
8.25

Assign pIC50 to the following record: COCCNC(=O)c1ccc(-c2nc(Nc3cnn(C)c3)ncc2C)cc1
7.12

Report pIC50, nothing else, for this molecule: C[C@@H](C#N)NC(=O)c1ccc(-c2nc(Nc3cn[nH]c3)ncc2Cl)cc1
8.54

----------
The following molecules are listed with their measured pIC50 values.
- assayedSystem: JAK2 (Homo sapiens, UniProt O60674)
- Construct: purchased Carna Biosciences
- Sequence (O60674 whole entry): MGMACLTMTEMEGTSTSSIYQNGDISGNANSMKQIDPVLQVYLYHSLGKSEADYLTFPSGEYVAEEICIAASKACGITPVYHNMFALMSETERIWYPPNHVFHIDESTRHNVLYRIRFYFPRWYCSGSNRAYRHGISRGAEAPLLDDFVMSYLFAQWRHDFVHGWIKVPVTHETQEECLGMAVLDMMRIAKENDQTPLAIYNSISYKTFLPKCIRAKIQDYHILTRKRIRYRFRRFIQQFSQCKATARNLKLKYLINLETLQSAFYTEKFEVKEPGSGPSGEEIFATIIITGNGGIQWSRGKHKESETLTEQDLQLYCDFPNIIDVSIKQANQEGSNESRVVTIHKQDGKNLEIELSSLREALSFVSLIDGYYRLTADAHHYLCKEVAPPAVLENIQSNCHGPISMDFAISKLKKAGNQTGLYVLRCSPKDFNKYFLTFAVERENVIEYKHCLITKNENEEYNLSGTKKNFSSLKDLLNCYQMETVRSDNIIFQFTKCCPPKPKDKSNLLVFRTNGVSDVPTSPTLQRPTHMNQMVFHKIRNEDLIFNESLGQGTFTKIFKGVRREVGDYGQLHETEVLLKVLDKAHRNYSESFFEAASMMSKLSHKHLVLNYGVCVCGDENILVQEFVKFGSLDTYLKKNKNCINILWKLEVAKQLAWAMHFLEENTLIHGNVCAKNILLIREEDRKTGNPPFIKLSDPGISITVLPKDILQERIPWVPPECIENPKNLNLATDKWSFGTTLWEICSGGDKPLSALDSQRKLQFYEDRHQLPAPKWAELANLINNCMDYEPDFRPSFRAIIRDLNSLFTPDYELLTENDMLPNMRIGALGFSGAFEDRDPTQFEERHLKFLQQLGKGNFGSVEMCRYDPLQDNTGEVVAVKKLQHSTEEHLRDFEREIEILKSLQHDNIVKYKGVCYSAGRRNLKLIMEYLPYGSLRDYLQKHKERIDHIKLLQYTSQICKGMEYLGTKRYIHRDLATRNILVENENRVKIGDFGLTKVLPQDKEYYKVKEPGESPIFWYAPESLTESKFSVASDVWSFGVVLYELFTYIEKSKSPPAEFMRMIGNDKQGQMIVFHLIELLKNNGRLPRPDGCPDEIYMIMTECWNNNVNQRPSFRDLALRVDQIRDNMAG
- protocolSummary: JAK2 microfluidic kinase assay (Caliper EZ Reader II, FAM labeled peptide substrate)
- Format: biochemical
- testParameters: IC50 JAK2 ([…]) (1 mM ATP), 1 mM ATP
API: returns pIC50 as number; meaning -log10 of concentration in mol/L.

Take a look at these entries with their results.
INSERT INTO measurements (molecule, property, recordednumber) VALUES
  ('Cc1cnc(Nc2cnn(C3CC3)c2)nc1-c1ccc(C(=O)N[C@@H](C)C#N)c(F)c1', 'pIC50', 7.31),
  ('Cc1cnc(Nc2cnn(C3CCN(C(=O)C4CC4)CC3)c2)nc1-c1ccc(C(=O)NCC2(C#N)CC2)cc1', 'pIC50', 9.06);

For the molecule Cc1cnc(Nc2cnn(C(C)C(F)(F)F)c2)nc1-c1ccc(C(=O)NCC#N)cc1 (stereo not shown) , give its reported pIC50.
7.10

----------
- assayedSystem: JAK2 (Homo sapiens)
- Construct: purchased Carna Biosciences
- protocolSummary: JAK2 microfluidic kinase assay (Caliper EZ Reader II, FAM labeled peptide substrate)
- Format: biochemical
- testParameters: IC50 JAK2 ([…]) (Km ATP), Km ATP
property: pIC50
To interpret pIC50, take it as minus log10 of a concentration measured in moles per litre.

INSERT INTO results (compound, property, recordednumber) VALUES
  ('CC(=O)N1CCC(n2cc(Nc3ncc(C)c(-c4ccc(C(=O)NCC#N)cc4)n3)cn2)CC1 [Example 20]', 'pIC50', 9.60);

Supply pIC50 value. Item: Cn1cc(Nc2ncc(Cl)c(-c3ccc(C(=O)NCC(C)(C)C#N)cc3)n2)cn1 [Example 122]
8.96

Identify measured pIC50 corresponding to Cc1cnc(Nc2cnn(CC#N)c2)nc1-c1ccc(C(=O)NCC#N)cc1 [Example 4]
8.69

Item N#CCNC(=O)c1ccc(-c2nc(Nc3cnn(C4CC4)c3)ncc2Cl)cc1F [Example 135] : provide pIC50
8.55

Tell us which pIC50 value is on record for C[C@@H](C#N)NC(=O)c1ccc(-c2nc(Nc3cnn(C4CC4)c3)ncc2Cl)cc1F [Example 137]
8.68

Return pIC50 (reported value) for this compound: Cc1cnc(Nc2cnn(C)c2)nc1-c1ccc(C(=O)NCCCO)cc1 [Example 7]
8.00

Tell me pIC50 reported for Cc1cnc(Nc2cnn(CC#N)c2)nc1-c1ccc(C(=O)N2CC(C#N)C2)cc1 [Example 30]
7.94

----------
- protocolSummary: Liver microsomes study, Phase I stability (RLM)
- Type: in vitro ADME, rat
- testParameters: pH 7.4; rat liver microsomes 0.5 mg/mL, 1 μM test article; read-out: RLM Clint
Please use 1.0 for microsomal CLint at 1 μM under 30 µL/min/mg and 0.0 for everything else, ties included.

// below: answered molecules
INSERT INTO assay_data (smilesnotation, cat) VALUES
  ('Cc1cnc(Nc2cnn(C3CCN(C)CC3)c2)nc1-c1ccc(C(=O)N[C@@H](C)C#N)cc1', 0.0),
  ('Cc1cnc(Nc2cnn(C3CCN(C(=O)C4CC4)CC3)c2)nc1-c1ccc(C(=O)N[C@@H](C)C#N)cc1', 0.0),
  ('C[C@@H](C#N)NC(=O)c1ccc(-c2nc(Nc3cnn(C4CC4)c3)ncc2C(F)F)cc1F', 1.0);

# strict comparison: is reported microsomal CLint at 1 μM < 30 µL/min/mg? input = N#CC1(CNC(=O)c2ccc(-c3nc(Nc4cnn(C5CCOCC5)c4)ncc3Cl)cc2)CC1
0.0

Decide: microsomal CLint at 1 μM of C[C@@H](C#N)NC(=O)c1ccc(-c2nc(Nc3cnn(C4CCN(C)CC4)c3)ncc2Cl)cc1 strictly below 30 µL/min/mg?
0.0

In the record for Cc1cnc(Nc2cnn(C3CCN(CC#N)CC3)c2)nc1-c1ccc(C(=O)NCC#N)cc1 , is microsomal CLint at 1 μM less than 30 µL/min/mg?
1.0

State whether 30 µL/min/mg exceeds microsomal CLint at 1 μM recorded for Cc1cnc(Nc2cnn([C@H]3CC[C@H](C#N)CC3)c2)nc1-c1ccc(C(=O)N[C@@H](C)C#N)cc1 .
0.0
